- Measurement target: S1P1 (Homo sapiens, UniProt P21453)
- Sequence (P21453 whole entry): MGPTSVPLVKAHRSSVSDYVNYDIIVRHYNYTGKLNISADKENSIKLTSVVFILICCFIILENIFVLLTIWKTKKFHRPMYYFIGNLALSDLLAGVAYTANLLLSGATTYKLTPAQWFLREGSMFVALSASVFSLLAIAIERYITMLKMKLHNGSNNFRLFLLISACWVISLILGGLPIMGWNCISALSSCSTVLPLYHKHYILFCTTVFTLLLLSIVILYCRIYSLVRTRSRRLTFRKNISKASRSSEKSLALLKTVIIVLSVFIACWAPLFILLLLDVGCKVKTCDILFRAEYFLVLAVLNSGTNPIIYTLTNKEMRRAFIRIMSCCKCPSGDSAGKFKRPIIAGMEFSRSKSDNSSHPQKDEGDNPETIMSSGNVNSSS
- Protocol: CNG cAMP Assay (Assay 1)
- Assay type: cell-based
- Design: host or cells: HEK293 cells expressing the CNG channel
- Condition set: read-out: Assay 1 EC50
pEC50: −log10 of the molar value.
Quantity measured: pEC50

{"Compound": "O=C(O)CCc1ccc(-c2noc(-c3cn4cc(C(F)(F)F)cc(Cl)c4n3)n2)cc1F [Entry 6]", "pEC50": "≥ 7.00"}

// returns reported pEC50 for input OCCN1CCC(Oc2cc(Cl)c(-c3noc(-c4cn5cc(C(F)(F)F)cc(Cl)c5n4)n3)cc2F)C1 (stereo not drawn) [Example 144]
6.30 to 7.00

Reported pEC50, compound CS(=O)(=O)Nc1ccc(-c2noc(-c3cn4cc(C(F)(F)F)cc(Cl)c4n3)n2)c(F)c1 [Example 129] : ____
6.30 to 7.00

For Cc1cc(C(C)CC(=O)O)ccc1-c1noc(-c2cn3cc(C(F)(F)F)cc(Cl)c3n2)n1 (stereo not drawn) [Example 181] , what is its reported pEC50?
≥ 7.00

Which value of pEC50 has been reported for O=c1nc(-c2ccc(-c3noc(-c4cn5cc(C(F)(F)F)cc(Cl)c5n4)n3)c(Cl)c2)[nH]o1 [Example 134] in the records?
6.00 to 6.30

If you can, please state the reported pEC50 value of Fc1ccc(-c2noc(-c3cn4cc(C(F)(F)F)cc(Cl)c4n3)n2)c(F)c1 [Example 146] .
6.00 to 6.30

pEC50 for CC(Oc1cc(Cl)c(-c2noc(-c3cn4cc(C(F)(F)F)cc(Cl)c4n3)n2)cc1F)C(=O)O (stereo not drawn) [Example 83] ?
6.30 to 7.00

Give the measured pEC50 of O=C(O)CCc1cc(Cl)c(-c2noc(-c3cn4cc([N+](=O)[O-])cc(Cl)c4n3)n2)cc1F [Entry 36] .
≥ 7.00

Given the entry O=C(O)C1CN(Cc2cccc(-c3noc(-c4cn5cc(C(F)(F)F)cc(Cl)c5n4)n3)c2)C1 [Example 121] , report its measured pEC50.
6.00 to 6.30

* * *

Entries and their EC50
- Measurement target: S1P1 (Homo sapiens, UniProt P21453)
- Protocol: DELFIA GTP-Eu Binding Assay (Assay 3b)
- Format: biochemical
- Parameters: purchased Lonza; host or cells: CHO cell membranes
- Condition set: read-out: Assay 3b EC50

Known EC50 results, listed for orientation:
{"Molecule": "Cc1c(I)ccc2nc(-c3nc(-c4cc(F)c(CCC(=O)O)cc4Cl)no3)cn12", "Observed value": "100 to 500 nM"}
{"Molecule": "O=C(O)CCc1cc(Cl)c(-c2noc(-c3cn4cc(C(F)(F)F)cc(Br)c4n3)n2)cc1F", "Observed value": "100 to 500 nM"}
{"Molecule": "OCC(O)COc1cc(Cl)c(-c2noc(-c3cn4cc(C(F)(F)F)cc(Cl)c4n3)n2)cc1Cl (stereo not drawn)", "Observed value": "100 to 500 nM"}
{"Molecule": "CS(=O)(=O)Nc1ccc(-c2noc(-c3cn4cc(C(F)(F)F)cc(Cl)c4n3)n2)c(Cl)c1", "Observed value": "500 to 1000 nM"}

Fill in the recorded EC50 for this molecule, with S1P1 (Homo sapiens, UniProt P21453) as test system: `O=C(O)CCc1cc(Cl)c(-c2nc(-c3cn4cc(C(F)(F)F)cc(Cl)c4n3)no2)cc1F`
100 to 500 nM

Missing value: EC50, S1P1 (Homo sapiens, UniProt P21453), entry `Cc1cc(CCC(=O)O)ccc1-c1noc(-c2cn3cc(C(F)(F)F)cc(Cl)c3n2)n1` . Fill in?
100 to 500 nM

Return EC50 measured with S1P1 (Homo sapiens, UniProt P21453) given this molecule: `O=C(O)CCc1cc(Cl)c(-c2noc(-c3cn4cc(I)cc(Cl)c4n3)n2)cc1F`
≤ 100 nM

Tell me reported EC50 for `C[C@H](CO)Oc1cc(Cl)c(-c2noc(-c3cn4cc(C(F)(F)F)cc(Cl)c4n3)n2)cc1F` , tested with S1P1 (Homo sapiens, UniProt P21453).
≤ 100 nM

Reported EC50 for S1P1 (Homo sapiens, UniProt P21453), given `OCCOc1cc(Cl)c(-c2noc(-c3cn4cc(C(F)(F)F)cc(Cl)c4n3)n2)cc1F` ?
100 to 500 nM

// fetch S1P1 (Homo sapiens, UniProt P21453) EC50 for `O=C(O)CCc1ccc(-c2nnc(-c3cn4cc(C(F)(F)F)cc(Cl)c4n3)s2)c(Cl)c1`
100 to 500 nM

Identify the measured EC50 of `O=C(O)CCc1cc(Cl)c(-c2nnc(-c3cn4cc(C(F)(F)F)cc(Br)c4n3)s2)cc1F` for S1P1 (Homo sapiens, UniProt P21453).
≤ 100 nM

Checklist item: EC50 tested on S1P1 (Homo sapiens, UniProt P21453), entry `O=C(O)CCNCc1ccc(-c2noc(-c3cn4cc(C(F)(F)F)cc(Br)c4n3)n2)c(Cl)c1` , value?
1000 to 5000 nM
